These data points were gathered from PubChem BioAssay (NCI).

# Tested on: SR leukemia
# ASSAY COMMENT: NCI tumour cell line growth inhibition, 48 h

{"columns": ["TEST SMILES", "RESULT UNITS", "LIMIT OPERATOR", "TGI"],
 "data": [
  ["CS/C(C)=N/OC(=O)NCCCCNc1ccc(N=[N+]=[N-])cc1", "µM", ">", 100],
  ["CSC1(SC2=NCCN2)SC2(NCCN2)S1", "µM", "=", 37.7],
  ["CC1(C)CC[C@]2(C(=O)N3CCOCC3)CC[C@]3(C)C(=CC[C@@H]4[C@@]5(C)C/C(=C/c6ccncc6)C(=O)C(C)(C)[C@@H]5CC[C@]43C)[C@@H]2C1", "µM", ">", 100],
  ["O=C1/C(=C/c2ccccc2)CCC/C1=C\\c1ccc(O)c(CN2CCCCC2)c1", "µM", "=", 6.38],
  ["O=C1C(=C(I)I)c2ccccc2-c2ccccc21", "µM", "=", 10.2],
  ["CC(C)(C)OC(=O)N(CCNS(=O)(=O)c1cccc2cnccc12)CCC(=O)ON1C(=O)CCC1=O", "µM", ">", 100]
]}

---

Each entry below lists one item and its recorded TGI value.
# Test system: SNB-78 CNS
# ASSAY COMMENT: NCI tumour cell line growth inhibition, 48 h
MEASURED ENDPOINT: TGI

{"columns": ["COMPOUND", "MEASURED ENDPOINT", "RESULT"],
 "data": [
  ["O=C(CCc1cc(-c2ccccc2)nc(=S)[nH]1)Nc1ccccc1[N+](=O)[O-]", "TGI", "> 100 µM"],
  ["CCc1nnc(-c2nsc3ccccc23)s1", "TGI", "> 100 µM"],
  ["CS/C(=N\\c1nccs1)NC(=O)c1cccc(Cl)c1", "TGI", "> 100 µM"],
  ["C=C=C(Sc1ccccc1)C(C)(C)OC(C)=O", "TGI", "91.4 µM"],
  ["C=CC1C(OC2OC(CO)C(O)C(O)C2O)OC=C(C(=O)OC)C1CC=O (stereo unspecified)", "TGI", "> 100 µM"],
  ["CC(c1ccccc1)/[N+]([O-])=C/c1ccccc1 (stereo unspecified)", "TGI", "> 100 µM"]
]}

---

# Tested on: HL-60(TB) leukemia
# ASSAY COMMENT: NCI tumour cell line growth inhibition, 48 h
MEASURED ENDPOINT: TGI

{"columns": ["MOLECULE", "MEASURED ENDPOINT", "RESULT"],
 "data": [
  ["Nc1ccc(-c2ccc(N)cc2I)c(I)c1", "TGI", "47.6 µM"],
  ["O=C(NN1C(=O)CSC1c1ccc(C(F)(F)F)cc1)c1ccncc1 (stereo not drawn)", "TGI", "> 100 µM"],
  ["COC(=O)C1(Cc2ccc3c(c2)CCC3)Cc2ccc3c(c2C1)CCC3 (stereo not drawn)", "TGI", "> 100 µM"],
  ["COc1cc([C@@H]2c3cc4c(cc3[C@@H](OC(=O)c3ccccc3)C3COC(=O)[C@@H]32)OCO4)cc(OC)c1O (stereo partly drawn)", "TGI", "15.4 µM"],
  ["CCOP(=O)(CN=C(c1ccccc1)c1ccccc1)OCC", "TGI", "> 100 µM"],
  ["Oc1ccc(/C=C/c2ccc3cccc(O)c3n2)cc1O", "TGI", "> 100 µM"],
  ["COc1cc2c3c(n(C)c(=O)c2cc1OC)-c1cc2c(cc1/C3=C\\C(N)CN)OCO2 (stereo not drawn)", "TGI", "> 100 µM"],
  ["O=C(COc1cccc(/C=C2\\COc3ccc(Cl)cc3C2=O)c1)c1ccc(Cl)cc1", "TGI", "31.5 µM"]
]}

---

Listing: TGI of selected compounds
# System: T-47D breast
# ASSAY COMMENT: NCI tumour cell line growth inhibition, 48 h
MEASURED ENDPOINT: TGI (µM)

{"columns": ["COMPOUND", "SYSTEM UNDER TEST", "MEASURED ENDPOINT", "RESULT UNITS", "LIMIT OPERATOR", "QUANTITATIVE RESULT"],
 "data": [
  ["CCOC(=O)C1(C/C=C\\CBr)CCCCCCCCCCC1=O (centres undefined)", "T-47D breast", "TGI", "µM", "=", 29.7],
  ["O=C1/C(=C/c2ccccc2)CCC/C1=C\\c1ccc(O)c(CN2CCCCC2)c1", "T-47D breast", "TGI", "µM", "=", 17.6],
  ["CCNCCNc1cc(C2CCCCC2)c(C#N)c2nc3ccccc3n12", "T-47D breast", "TGI", "µM", "=", 3.42],
  ["Cc1n[nH]c(=O)n1/N=C\\CC/C=N\\n1c(C)n[nH]c1=O", "T-47D breast", "TGI", "µM", ">", 100]
]}

---

# System: HOP-62 NSCLC
# ASSAY COMMENT: NCI tumour cell line growth inhibition, 48 h
Each record's TGI is compared with lower range (below 30 µM), middle range (30 µM to below 40 µM), upper range (40 µM or more) to give its class.

{"columns": ["COMPOUND", "CLASS"],
 "data": [
  ["CC(=O)Nc1ccc(/C=C/C(=O)c2sc(-c3nc(C)c(C(=O)/C=C/c4ccc(NC(C)=O)cc4)s3)nc2C)cc1", "upper range"],
  ["O=C1/C(=C/c2ccccc2)CCC/C1=C\\c1ccc(O)c(CN2CCCCC2)c1", "middle range"],
  ["CC1OC1C(=O)C1(O)C(C)C(O)C23OC2(C(O)c2c(O)cccc2C3=O)C1O (configuration not stated)", "lower range"],
  ["CCOC(=O)C1(C/C=C\\CBr)CCCCCCCCCCC1=O (configuration not stated)", "middle range"],
  ["COc1ccc(-c2c3c(nc4nc(SC)nc(SC)c24)CCCC3)cc1OC", "upper range"],
  ["O=C(/C=C/c1ccccc1)CSc1nc2ccc(I)cc2c(=O)n1Cc1ccccc1", "upper range"],
  ["O=C1NC(=O)C(COCc2ccccc2)C2=C1SCCC2 (configuration not stated)", "upper range"],
  ["O=C(Nc1nc(=S)c2c(ncn2CCO)[nH]1)c1ccccc1", "upper range"],
  ["C=CC1C(OC2OC(CO)C(O)C(O)C2O)OC=C(C(=O)OC)C1CC=O (configuration not stated)", "upper range"],
  ["O=C1C(=Nc2ccccc2)Oc2cc(O)ccc21", "upper range"],
  ["Clc1nc(Cl)c(-c2ccccc2)c(Cl)n1", "middle range"],
  ["COc1cc(/C=C2\\C(=O)N(Cc3ccccc3)C(c3ccccc3)S2(=O)=O)cc(OC)c1OC (configuration not stated)", "upper range"],
  ["Cc1ccc2c(C)c3ccc4ccccc4c3c[n+]2c1", "upper range"],
  ["O=C(N/N=C/c1cc([N+](=O)[O-])ccc1O)c1cccc2ccccc12", "middle range"],
  ["CCN(CC)CC(C(=O)Nc1c(C)cccc1C)/C(C)=N\\NC(=O)c1ccncc1 (configuration not stated)", "upper range"],
  ["C=C1CCC2[C@@H](CCC3[C@]2(C)CCC[C@]3(C)C(=O)OC)C1CCO (some centres not stated)", "upper range"],
  ["O=C(OCCBr)c1ccc(Cl)c([N+](=O)[O-])c1", "lower range"],
  ["N=C(N)c1ccc(COc2ccccc2OCc2ccc(C(=N)N)cc2)cc1", "upper range"],
  ["CCC(/C=C/c1ccccc1)=N\\Nc1ccc(Cl)c(Cl)c1", "upper range"],
  ["CCCCNC(=O)NS(=O)(=O)c1ccc(N2N=C(c3cc(C)ccc3C)CC2c2cc(OC)c(OC)c(OC)c2)cc1 (configuration not stated)", "lower range"]
]}

---

TGI reference
# Tested on: COLO 205 colon
# ASSAY COMMENT: NCI tumour cell line growth inhibition, 48 h
*1 amine or outer side, *2 acyl side, *3 side chain or, on linkers, in order; H or OH if unused. Where a SMILES comes first, the peptide text is derived from it. [ ]: non-standard residue; d: D form. X33 = C=CCC(O[*:1])C(=O)[*:2]; NMeV = CN[CH](C(=O)O)C(C)C; NMeA = CN[CH](C)C(=O)O; βAla = NCCC(=O)O
MEASURED ENDPOINT: TGI (µM)

{"columns": ["COMPOUND", "MEASURED ENDPOINT", "LIMIT OPERATOR", "QUANTITATIVE RESULT"],
 "data": [
  ["COc1cccc(C2SCC(=O)N2c2ccc(-n3c(-c4ccccc4)nc4ccccc4c3=O)cc2)c1OC (stereo not drawn)", "TGI", ">", 100],
  ["CN(C)CCn1c(=O)c2ccc3c4c(nn3CCN(C)C)c3cc(O)ccc3n(c1=O)c24", "TGI", "=", 0.609],
  ["C[C@]12CCc3sc(Nc4ccc(O)cc4)nc3C1=CC[C@@H]1[C@@H]2CC[C@]2(C)C(=O)CC[C@@H]12", "TGI", "=", 3.9],
  ["CCN(CC)c1ccc(C(=N)c2ccc(N(C)C)cc2)cc1", "TGI", "=", 3.06],
  ["CCOC(=O)C1(C/C=C\\CBr)CCCCCCCCCCC1=O (stereo not drawn)", "TGI", "=", 33.7],
  ["S=C(Nc1cc(Cl)c(Cl)cc1Cl)SCc1ccccc1", "TGI", ">", 100],
  ["CCC(=O)N(O)C(C)(C)C", "TGI", ">", 100],
  ["O=C(/C=C/c1ccc(Cl)cc1)c1cccs1", "TGI", "=", 37.9],
  ["CC(=O)O[C@H]1CC[C@@]2(C)[C@@H](CC[C@@H]3[C@@H]2CC[C@]2(C)C=C(C=O)C[C@@H]32)C1", "TGI", "=", 39.2],
  ["COC1=CC(=O)c2c(O)c3c(c(O)c2C1=O)C=C(C)OC3O (stereo not drawn)", "TGI", "=", 0.746],
  ["Clc1nc(Cl)c(-c2ccccc2)c(Cl)n1", "TGI", "=", 3.6],
  ["O=C1CC(C(=O)N2CCCCC2)n2c(=O)n(-c3ccccc3)c(=O)n2C1 (stereo not drawn)", "TGI", ">", 100],
  ["OCC1OC(n2cnc3c(=S)nc[nH]c32)C(O)C1O (stereo not drawn)", "TGI", ">", 2450],
  ["CC(CCC(=O)O)C1CCC2C3C(O)CC4CC(O)CCC4(C)C3CC(O)C12C (stereo not drawn)", "TGI", ">", 100],
  ["O=C(CCCN1CCC2(CC1)CC(=O)N(N1CCCCCC1)C2=O)c1ccc(F)cc1", "TGI", ">", 100],
  ["C=C=C(Sc1ccccc1)C(C)(C)OC(C)=O", "TGI", "=", 32.5],
  ["c1ccc2cc(CNCCOCCOCCNCc3ccc4ccccc4c3)ccc2c1", "TGI", "=", 3.01],
  ["C=CCC1OC(=O)CCNC(=O)C(C)N(C)C(=O)C(C(C)C)N(C)C(=O)C(C(C)CC)NC(=O)C2CCCN2C1=O (stereo not drawn) (cyclo([X33]PI[NMeV][NMeA][βAla]); configuration not given here)", "TGI", ">", 100],
  ["CC(=O)O[C@H]1CCn2c3c(c(C)c21)C(=O)C(N1CC1)=C(C)C3=O", "TGI", ">", 10],
  ["O=c1oc(-c2ccccc2)c(-c2ccccc2)n1-c1ccc(Br)cc1", "TGI", ">", 100],
  ["COc1ccc(/C=C2\\CCC(CN(C)C)C2=O)cc1OC (stereo not drawn)", "TGI", "=", 10.6],
  ["CC(C)CCc1n[nH]c(=O)n1/N=C\\c1ccccc1", "TGI", ">", 100],
  ["CCN(CC)C(=S)N=Nc1c(O)[nH]c2ccccc12", "TGI", "=", 11.6],
  ["COc1ccc(-c2c3c(nc4nc(SC)nc(SC)c24)CCCC3)cc1OC", "TGI", ">", 100],
  ["CCSc1nc(=[N+]2CCCC2)ss1", "TGI", ">", 49.3],
  ["Cc1ccc(S(=O)(=O)n2c3c(c4ccccc42)CCN2CCC(Br)C[C@@H]32)cc1 (stereo partly drawn)", "TGI", "=", 30.2],
  ["CC(=O)Nc1ccc(/C=C/C(=O)c2sc(-c3nc(C)c(C(=O)/C=C/c4ccc(NC(C)=O)cc4)s3)nc2C)cc1", "TGI", ">", 100],
  ["CCOc1cc2c(cc1OC(C)=O)C(=O)CC[C@H]1C3CC[C@H](OC(C)=O)[C@@]3(C)CC[C@H]21 (stereo partly drawn)", "TGI", ">", 100]
]}
